test: in vivo; settings: male, Sprague-Dawley, rat, in vivo, po, 0.2 mg/kg
Counter-ions that a name gives are not always drawn.
parameter: Tmax
Answer with the number, then the unit.

What Tmax value was documented for this molecule, CC[C@]1(O)C[C@H]2CN(CCc3c([nH]c4ccccc34)[C@@](C(=O)OC)(c3cc4c(cc3OC)N(C=O)[C@H]3[C@@](O)(C(=O)OC)[C@H](OC(C)=O)[C@]5(CC)C=CCN6CC[C@]43[C@@H]65)C2)C1 [Comparative Test Example 4-4, vincristine sulfate] ?
49.8 min

###

assay: Intestinal absorption test of various antitumor agents (plasma concentration by gas/liquid chromatography); details: male, Sprague-Dawley, rat, in vivo, po, 50 mg/kg
parameter: Tmax
Answer with the number, then the unit.

What Tmax value was documented for this compound, O=P1(NCCCl)OCCCN1CCCl (stereo not shown) [Comparative Test Example 4-2, ifosfamide] ?
45 min
